These data points were gathered from PubChem BioAssay AID1865.

# assay_protocol: Quantitative High-Throughput Screen for Regulators of Epigenetic Control; further: nearly all actives have a fitted effect of over 60% in size
# study_conditions: murine LDR cells, GFP reporter derepression, 30 h; series mostly up to 53.9 µM
In all, about 280,000 compounds went through this assay and about 540 (0.19%) were called active. About 2% were inconclusive and are not listed. The call rests on the fitted dose curve; in most records, active means well fitted activation curve with a large enough effect; inconclusive means small, poorly fitted or top-dose-only effect; inactive means flat fitted curve, though single readings scatter. The full list was thinned out, with actives kept by preference.
// classify into class 1 = active, class 0 = inactive

Fc1ccc(C(OCCN2CCN(C/C=C\c3ccccc3)CC2)c2ccc(F)cc2)cc1    class 0
CCOc1ccc(CNC(=O)c2cccc(Nc3nc4ccccc4n4nnnc34)c2)cc1OC    class 1
CC(=O)c1c(O)c(C)c(O)c(Cc2c(O)c3c(c(C(=O)/C=C\c4ccccc4)c2O)OC(C)(C)C=C3)c1O    class 0
COc1cc(Cn2c(N)c(C(=O)NCc3ccco3)c3nc4ccccc4nc32)cc(OC)c1OC    class 0

Next compound, please.
Write down the call the test reported for this compound. Item: CCCn1c(C(=O)c2ccccc2OC)nc2ccccc21
class 0
